I'd appreciate it if you could supply self-cleavage values for the items below.
B1: CPEB3 Ribozyme (parent)
chain: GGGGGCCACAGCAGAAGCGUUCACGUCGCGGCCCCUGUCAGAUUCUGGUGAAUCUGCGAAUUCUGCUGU

- Variants of: B1
- Procedure Details: self-cleavage, relative activity (ratio to wild type); higher = more cleavage; co-transcriptional

Solved cases below.
# input variant: GGGGGCCACAGCAGAAGCGUUCACGUCGCGGCCCCAGUCAGAUUCUGGUGAAUCUGCGAAUUCUCCUGU [U36A G65C] ; wanted: its self-cleavage 0.31

Try this variant next: GGGGGCCACAGCAGAAGCGUUCACGUCGCGGCCCCUGUCAGAUUCUAGUGAAUCUGUGAAUUCUGCUGU [G47A C57U] 0.321

What do you get for GGGGGCCACAGCAGAAGCGUUCACGUCGCGCCCCCUGUCAGAUUAUGGUGAAUCUGCGAAUUCUGCUGU [G31C C45A] ? 0.25

Another: GGGGGCCACAGCAGAAGCGUUCAUGUCGCGGCCCCUGUCAGAUUCUGGGGAAUCUGCGAAUUCUGCUGU [C24U U49G] 0.762

Note, next up: GGGGGCCACAGCAGAAGCGUUCACGUCGCGGCCCCUGUCAGAUUCUAAUGAAUCUGCGAAUUCUGCUGU [G47A G48A] 1.03

Required: self-cleavage, one value per variant below.
1. GGGUGCCACAGCAGAAGCGUUCACGUCGCGGCCCCUGUCAGAUUCUGGUGAUUCUGCGAAUUCUGCUGU [G4U A52U]
2. GGGGGCCACAGCAGAAUCGUUCCCGUCGCGGCCCCUGUCAGAUUCUGGUGAAUCUGCGAAUUCUGCUGU [G17U A23C]
3. GGGGGCCACAGCAGAAGCGUUCACGUCGCGGCCCCUGUAAGAUUCUGGUGAAUCUGCGAUUUCUGCUGU [C39A A60U]
4. GGGGCCCACAGCAGAAGCGUUCACGUCGCGGCCCCUGUCAGAUUCUGGUGCAUCUGCGAAUUCUGCUGU [G5C A51C]
5. GGGGGCCACAGGAGAAGCGUUCACGUCGCGGCCCCUGUCAGAUUCUAGUGAAUCUGCGAAUUCUGCUGU [C12G G47A]
6. GGGGGCCACAGCAGAAGCGUUAACGUCGCGGCCCCUGUCAGAUUCUGGUGAAUCUGUGAAUUCUGCUGU [C22A C57U]
7. GAGGGCCACAGCAGAAGCGUUCACGUCGCGGCCCCUGUCAGAUUCUGGUGAAUCUGCGAAUUCUGGUGU [G2A C66G]
8. GGGGGCCACAGCAGAAGCGUUCACGUCGCGGCGCCUGUCAGAUUCUGGUGAAUCUGCGAAUUCGGCUGU [C33G U64G]

1. 0.677
2. 0.462
3. 0.24
4. 0.152
5. 0.912
6. 0.137
7. 0.101
8. 0.395

Your task in this section: give self-cleavage for each listed record.
1. GGGGGCCACAGCAGACGCGUUCACGUCGCGGCCCCUGUCAGAUUCUGGUGAAUCUGCGGAUUCUGCUGU [A16C A59G]
2. GGGGGCCACAGCAGAAGCGUUCACGUCGCGGCUCCUGUCAGAUUCUGGUGAAUCUGCGAAUUGUGCUGU [C33U C63G]
3. GGGGGCCACAGCAGAAGCGUUCACGUCGCGGCCCCUCUCAGAUUCUGGUGAAUCUGCGAAUUCUGCUUU [G37C G68U]
4. GGGGGCCACAGCAGAAGCGUUCACGUCGCGGACCCUGUCAGAUUCUGGUGAAUCAGCGAAUUCUGCUGU [C32A U55A]
5. GGGGGCCACAGCAGAAGCGUUCAAGUCGCGGCCCCAGUCAGAUUCUGGUGAAUCUGCGAAUUCUGCUGU [C24A U36A]
6. GGGGGCCACAGCAGAAGCGUUCACGUCGCGGUCCCUGUCAGAUUCUGGUGAAUCUGCGAAUUUUGCUGU [C32U C63U]
7. GGGGGCCACAGCAGAAGCAUUCGCGUCGCGGCCCCUGUCAGAUUCUGGUGAAUCUGCGAAUUCUGCUGU [G19A A23G]
8. GGGGGUCACAGCAGAAGCGUUCACGUCGCGGCCCCUGUCAGAUUGUGGUGAAUCUGCGAAUUCUGCUGU [C6U C45G]

1: 0.287; 2: 0.82; 3: 0.245; 4: 0.622; 5: 0.173; 6: 0.956; 7: 0.131; 8: 1.02

Using the record for GGGGGCCACAGCAGAAGCGUUUACGUCGCGGCCCCUGUCAGAUUCUGGUGAAUCAGCGAAUUCUGCUGU [C22U U55A] , report its self-cleavage. 0.182
